Where do these numbers come from? They come from ChEMBL document CHEMBL1132959.

Collected Ki values appear next to each entry.
target: Gonadotropin-releasing hormone receptor (Rattus norvegicus); assay: Affinity for rat gonadotrophin releasing hormone (GnRH) receptor using HEK293 cells transfected with rat Gonadotropin-releasing hormone receptor; type: cell-based; conditions: hek293
Sequence (P30969 whole entry): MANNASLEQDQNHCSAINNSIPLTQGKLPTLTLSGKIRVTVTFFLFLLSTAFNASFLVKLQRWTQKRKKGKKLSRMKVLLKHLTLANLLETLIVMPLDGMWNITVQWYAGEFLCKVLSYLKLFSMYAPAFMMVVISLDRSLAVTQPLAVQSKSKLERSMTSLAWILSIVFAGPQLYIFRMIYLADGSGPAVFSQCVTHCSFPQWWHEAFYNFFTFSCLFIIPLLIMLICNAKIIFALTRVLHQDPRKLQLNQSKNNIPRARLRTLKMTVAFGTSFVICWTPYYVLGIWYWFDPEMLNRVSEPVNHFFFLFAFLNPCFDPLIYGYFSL
Answer in nM, number only, no unit symbol.

The cases that follow already have their Ki on record.
# input Item under review: CC(=O)N[C@@H]1CCC(=O)NCC(=O)NCCC[C@H]2NC(=O)[C@@H](CC(=O)NC[C@H](C(N)=O)NC(=O)[C@H]3CCCN3C(=O)[C@H](CCCN=C(N)N)NC(=O)[C@@H](CC(C)C)NC(=O)[C@@H](Cc3ccc4ccccc4c3)NC2=O)NC(=O)[C@@H](Cc2c[nH]c3ccccc23)NC(=O)[C@H](Cc2ccc(Cl)cc2)NC1=O . Reported Ki?
# output 1.1

# input Item under review: CC(=O)N[C@@H]1CC(=O)NCC(=O)NCC[C@H]2NC(=O)[C@@H](CC(=O)NC[C@H](C(N)=O)NC(=O)[C@H]3CCCN3C(=O)[C@H](CCCN=C(N)N)NC(=O)[C@@H](CC(C)C)NC(=O)[C@@H](Cc3ccc4ccccc4c3)NC2=O)NC(=O)[C@@H](Cc2cccnc2)NC(=O)[C@H](Cc2ccc(Cl)cc2)NC1=O . Reported Ki?
# output 0.12

# input Item under review: CC(=O)N[C@@H]1CCC(=O)NCCCC[C@@H]2NC(=O)[C@H](CC(C)C)NC(=O)[C@@H](Cc3ccc4ccccc4c3)NC(=O)[C@H](CCCN=C(N)N)NC(=O)[C@H](CC(=O)NC[C@H](C(N)=O)NC(=O)[C@@H]3CCCN3C2=O)NC(=O)[C@@H](Cc2cccnc2)NC(=O)[C@H](Cc2ccc(Cl)cc2)NC1=O . Reported Ki?
# output 1.8

# input Item under review: CC(=O)N[C@H](Cc1ccc2ccccc2c1)C(=O)N[C@H](Cc1ccc(Cl)cc1)C(=O)N[C@@H]1CC(=O)NCCCC[C@@H]2NC(=O)[C@H](CC(C)C)NC(=O)[C@@H](CCCNC(=N)N)NC(=O)[C@H](Cc3ccc(O)cc3)NC(=O)[C@H](CC(=O)NC[C@@H](C(N)=O)NC(=O)[C@@H]3CCCN3C2=O)NC1=O . Reported Ki?
# output 17

# input Item under review: CC(=O)N[C@@H]1CC(=O)NCC(=O)NCC[C@H]2NC(=O)[C@@H](CC(=O)NC[C@H](C(N)=O)NC(=O)[C@H]3CCCN3C(=O)[C@H](CCCN=C(N)N)NC(=O)[C@@H](CC(C)C)NC(=O)[C@@H](Cc3ccc4ccccc4c3)NC2=O)NC(=O)[C@@H](Cc2ccc3ccccc3c2)NC(=O)[C@H](Cc2ccc(Cl)cc2)NC1=O . Reported Ki?
# output 0.38

# input Item under review: CC(=O)N[C@H](Cc1ccc2ccccc2c1)C(=O)N[C@H](Cc1ccc(F)cc1)C(=O)N[C@H](Cc1c[nH]c2ccccc12)C(=O)N[C@H]1CC(=O)NC[C@@H](C(N)=O)NC(=O)[C@@H]2CCCN2C(=O)[C@@H]2CCCCNC(=O)CC[C@H](NC1=O)C(=O)N[C@H](CCCN=C(N)N)C(=O)N[C@@H](CC(C)C)C(=O)N2 . Reported Ki?
# output 0.32

# input Item under review: CC(=O)N[C@H](Cc1ccc2ccccc2c1)C(=O)N[C@@H]1CCC(=O)NCCCC[C@@H]2NC(=O)[C@H](CC(C)C)NC(=O)[C@@H](Cc3ccc4ccccc4c3)NC(=O)[C@H](CCCN=C(N)N)NC(=O)[C@H](CC(=O)NC[C@@H](C(N)=O)NC(=O)[C@@H]3CCCN3C2=O)NC(=O)[C@@H](Cc2cccnc2)NC1=O . Reported Ki?
# output 15

# input Item under review: CC(=O)N[C@H](Cc1ccc2ccccc2c1)C(=O)N[C@@H]1CCC(=O)NCCCC[C@@H](C(=O)N2CCC[C@H]2C(=O)N[C@H](C)C(N)=O)NC(=O)[C@H](CC(C)C)NC(=O)[C@@H](Cc2ccc3ccccc3c2)NC(=O)[C@H](CCCN=C(N)N)NC(=O)[C@H](C)NC(=O)[C@@H](Cc2cccnc2)NC1=O . Reported Ki?
# output 110

New cases:
# input Item under review: CC(=O)N[C@@H]1CCC(=O)N[C@H](C)C(=O)NCC[C@H]2NC(=O)[C@@H](CC(=O)NC[C@H](C(N)=O)NC(=O)[C@H]3CCCN3C(=O)[C@H](CCCN=C(N)N)NC(=O)[C@@H](CC(C)C)NC(=O)[C@@H](Cc3ccc4ccccc4c3)NC2=O)NC(=O)[C@@H](Cc2c[nH]c3ccccc23)NC(=O)[C@H](Cc2ccc(Cl)cc2)NC1=O . Reported Ki?
# output 0.22

# input Item under review: CC(C)C[C@@H]1NC(=O)[C@@H](Cc2ccc3ccccc3c2)NC(=O)[C@H](CCCNC(=N)N)NC(=O)[C@H](C)NC(=O)[C@@H](Cc2cccnc2)NC(=O)[C@@H](Cc2ccc(Cl)cc2)NC(=O)[C@@H](Cc2ccc3ccccc3c2)NC(=O)CCC(=O)NCCCC[C@@H](C(=O)N2CCC[C@H]2C(=O)N[C@H](C)C(N)=O)NC1=O . Reported Ki?
# output 21

# input Item under review: CC(=O)N[C@H](Cc1ccc2ccccc2c1)C(=O)N[C@H](Cc1ccc(F)cc1)C(=O)N[C@H](Cc1cccnc1)C(=O)N[C@H]1CC(=O)NC[C@@H](C(N)=O)NC(=O)[C@@H]2CCCN2C(=O)[C@@H]2CCNC(=O)CNC(=O)CC[C@H](NC1=O)C(=O)N[C@H](CCCN=C(N)N)C(=O)N[C@@H](CC(C)C)C(=O)N2 . Reported Ki?
# output 0.12

# input Item under review: CC(=O)N[C@@H]1CC(=O)NCC(=O)NCCC[C@H]2NC(=O)[C@@H](CC(=O)NC[C@H](C(N)=O)NC(=O)[C@H]3CCCN3C(=O)[C@H](CCCN=C(N)N)NC(=O)[C@@H](CC(C)C)NC(=O)[C@@H](Cc3ccc4ccccc4c3)NC2=O)NC(=O)[C@@H](Cc2c[nH]c3ccccc23)NC(=O)[C@H](Cc2ccc(Cl)cc2)NC1=O . Reported Ki?
# output 0.31
